The reported numbers originate from paper PMC5540273.

# System: MARK2
# testParameters: concentration: 1 μM, replicates: in singlicate; n = 1;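 note: KINOMEscan kinase panel screen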
Below, each entry is listed with its recorded %Inh.
assayMetric: %Inh (%)

- smilesString: "Cl.NS(=O)(=O)c1cccc(Nc2cc(-c3ccc(F)cc3)n[nH]2)c1"
  assayMetric: "%Inh"
  observedMeasurement: 19
- smilesString: "COc1ccc(-c2cc3c(C)nc(N)nc3n([C@H]3CC[C@H](OCCO)CC3)c2=O)cn1"
  assayMetric: "%Inh"
  observedMeasurement: 1
- smilesString: "COc1cc2ncn(-c3cc(OCCCc4ccccc4)c(C(N)=O)s3)c2cc1OC"
  assayMetric: "%Inh"
  observedMeasurement: 0
- smilesString: "CCn1c(-c2nonc2N)nc2ccccc21"
  assayMetric: "%Inh"
  observedMeasurement: 25
- smilesString: "CN(C)c1cc(-c2ccc3c(N)n[nH]c3c2)nc(N)n1"
  assayMetric: "%Inh"
  observedMeasurement: 0
- smilesString: "Nc1n[nH]c2nnc(-c3ccccc3)c(-c3ccccc3)c12"
  assayMetric: "%Inh"
  observedMeasurement: 0

----------
# Tested on: DAPK2
# testParameters: concentration: 1 μM, replicates: in singlicate; n = 1
assayMetric: %Inh

- compound: "CN(C)c1cc(-c2ccc3c(N)n[nH]c3c2)nc(N)n1"
  assayMetric: "%Inh"
  observedMeasurement: "0%"
- compound: "Nc1n[nH]c2ncc(-c3ccccc3)cc12"
  assayMetric: "%Inh"
  observedMeasurement: "0%"
- compound: "COc1ccc(-n2cnc3c(N)ncnc32)cc1"
  assayMetric: "%Inh"
  observedMeasurement: "1%"
- compound: "OCCCNc1nccc(-c2c(-c3cccc(C(F)(F)F)c3)nn3cc(C(F)(F)F)ccc23)n1"
  assayMetric: "%Inh"
  observedMeasurement: "0%"
- compound: "Cc1nnc(-c2ccc(C)c(-c3ccc(C(=O)O)cc3)c2)o1"
  assayMetric: "%Inh"
  observedMeasurement: "0%"
- compound: "COc1ccc(CNC(=O)NC2CCN(c3ccnc(Nc4ccc(F)cc4)n3)C2)cc1 (stereo not shown)"
  assayMetric: "%Inh"
  observedMeasurement: "14%"
- compound: "CCn1c(-c2ccoc2)nc2cnccc21"
  assayMetric: "%Inh"
  observedMeasurement: "0%"
- compound: "Cc1c(Cn2c(C)nn3c(=O)cc(N4CCO[C@H](C)C4)nc23)cccc1C(F)(F)F"
  assayMetric: "%Inh"
  observedMeasurement: "0%"
- compound: "Nc1nc(N)c2nc(-c3ccccc3)[nH]c2n1"
  assayMetric: "%Inh"
  observedMeasurement: "0%"
- compound: "Nc1n[nH]c2nnc(-c3ccccc3)c(-c3ccccc3)c12"
  assayMetric: "%Inh"
  observedMeasurement: "0%"

----------
%Inh reference
# System: WNK3
# testParameters: concentration: 1 μM, replicates: in singlicate; n = 1
assayMetric: %Inh (%)

- molecule: "O=c1cc(N2CCOCC2)nc2n(Cc3ccc(F)c(Cl)c3)ccn12"
  assayMetric: "%Inh"
  observedMeasurement: 5
- molecule: "Nc1nc(N)c2nc(-c3ccccc3)[nH]c2n1"
  assayMetric: "%Inh"
  observedMeasurement: 11
- molecule: "Cc1ccc(-c2ccc3c(ccc4sc5c(c43)NC[C@@H](C)N=C5N(C)C)n2)cn1"
  assayMetric: "%Inh"
  observedMeasurement: 0
- molecule: "Cn1c(=O)c(F)c(Nc2ccc(I)cc2F)c2c(=O)n(OC[C@H](O)CO)cnc21"
  assayMetric: "%Inh"
  observedMeasurement: 0
- molecule: "COC(=O)c1c(-c2ccccc2)c2cc(C)ccc2c(=O)n1Cc1ccccc1"
  assayMetric: "%Inh"
  observedMeasurement: 0
- molecule: "Cc1cccc(-c2nc(Nc3ccc4c(cnn4C)c3)c3ccccc3n2)n1"
  assayMetric: "%Inh"
  observedMeasurement: 21
- molecule: "CCS(=O)(=O)c1ccc(OC)c(Nc2ncc(-c3ccc(F)cc3)o2)c1.Cl"
  assayMetric: "%Inh"
  observedMeasurement: 21
- molecule: "COC(=O)c1c(-c2ccccc2)c2cc(Br)ccc2c(=O)n1Cc1ccc(NC(=O)CCC(=O)O)cc1"
  assayMetric: "%Inh"
  observedMeasurement: 0
- molecule: "OCCCNc1nccc(-c2c(-c3cccc(C(F)(F)F)c3)nn3cc(C(F)(F)F)ccc23)n1"
  assayMetric: "%Inh"
  observedMeasurement: 33
- molecule: "Cc1ccccc1COc1cc(-n2cnc3cc(Cl)ccc32)sc1C(N)=O"
  assayMetric: "%Inh"
  observedMeasurement: 6
- molecule: "Cc1c(Cn2c(C)nn3c(=O)cc(N4CCO[C@H](C)C4)nc23)cccc1C(F)(F)F"
  assayMetric: "%Inh"
  observedMeasurement: 20
- molecule: "COc1ccc(-c2cc3c(C)nc(N)nc3n([C@H]3CC[C@H](O)CC3)c2=O)cn1"
  assayMetric: "%Inh"
  observedMeasurement: 0
- molecule: "Cl.c1ccc(Cn2cnc3cc(Nc4ncnc5ccccc45)ccc32)cc1"
  assayMetric: "%Inh"
  observedMeasurement: 35
- molecule: "COc1cccc(C2=C(Nc3cccc(C(=O)O)c3)C(=O)NC2=O)c1"
  assayMetric: "%Inh"
  observedMeasurement: 5
- molecule: "CCn1c(-c2ccoc2)nc2cnccc21"
  assayMetric: "%Inh"
  observedMeasurement: 19
- molecule: "COc1cc(Nc2nccc(N3CCC(NC(=O)C4COc5ccccc5O4)C3)n2)cc(OC)c1OC (stereo not shown)"
  assayMetric: "%Inh"
  observedMeasurement: 46
- molecule: "CN1C(=O)C(Nc2ccccc2)=C(c2ccccc2)C1=O"
  assayMetric: "%Inh"
  observedMeasurement: 33
- molecule: "Cl.NS(=O)(=O)c1cccc(Nc2cc(-c3ccc(F)cc3)n[nH]2)c1"
  assayMetric: "%Inh"
  observedMeasurement: 25
- molecule: "Nc1n[nH]c2nnc(-c3ccccc3)c(-c3ccccc3)c12"
  assayMetric: "%Inh"
  observedMeasurement: 18

----------
# System: YANK3
# Construct: gene STK32C
# testParameters: concentration: 1 μM, replicates: in singlicate; n = 1
assayMetric: %Inh

- molecule: "Nc1n[nH]c2ncc(-c3ccccc3)cc12 [SB-517081]"
  observedMeasurement: "23%"
- molecule: "O=C1NC(=O)C(c2ccccc2)=C1Nc1cccc(O)c1 [SB-390534]"
  observedMeasurement: "0%"
- molecule: "COc1cc(Nc2ccnc3ccc(C(F)(F)F)cc23)cc(OC)c1OC [GW577382]"
  observedMeasurement: "44%"
- molecule: "CCC(=O)c1c(-c2ccccc2)c2cc(Cl)ccc2c(=O)n1Cc1cc(S(C)(=O)=O)n(CCC(C)(C)O)n1"
  observedMeasurement: "23%"
- molecule: "Fc1cccc(CSc2nnc(-c3ccc4c(c3)CCO4)o2)c1"
  observedMeasurement: "0%"
- molecule: "Cc1cccc(-c2cc(-c3c[nH]nc3-c3ccccn3)ccn2)c1 [GW679395]"
  observedMeasurement: "15%"
- molecule: "COc1ccc(-n2cnc3c(N)ncnc32)cc1 [SKF-97236]"
  observedMeasurement: "0%"
- molecule: "C[C@@H]1CC[C@H](C(=O)NC2CCCCC2)CN1c1cc(-c2ccc3c(N)n[nH]c3c2)nc(N)n1 [GSK2291363]"
  observedMeasurement: "26%"
- molecule: "Cc1cccc(-c2nc(Nc3ccc4c(cnn4C)c3)c3ccccc3n2)n1 [GW876731]"
  observedMeasurement: "32%"
- molecule: "Cc1cc(Nc2nc(-c3cccc(C)n3)nc3ccccc23)ccn1 [GW872411]"
  observedMeasurement: "0%"
- molecule: "CN1C(=O)C(Nc2ccccc2)=C(c2ccccc2)C1=O [SB-300079]"
  observedMeasurement: "0%"
- molecule: "O=C(Nc1ccc2c(c1)OCO2)NC1CCN(c2ccnc(NCc3ccc(F)cc3)n2)CC1 [GSK1379859]"
  observedMeasurement: "0%"
- molecule: "O=C(NCCNc1ccnc(Nc2ccc(F)cc2)n1)Nc1ccc2c(c1)OCO2 [GSK1379882]"
  observedMeasurement: "0%"
- molecule: "FC(F)(F)c1ccc(-c2ncn(CCCN3CCOCC3)c2-c2ccncc2)cc1 [SB-217780]"
  observedMeasurement: "7%"
- molecule: "Nc1ncnc2c1ncn2-c1cccc(F)c1 [SKF-97560]"
  observedMeasurement: "0%"
- molecule: "CCc1nc(-c2cccc(C)c2)c(-c2ccncc2)s1"
  observedMeasurement: "0%"
- molecule: "COc1cc2ncn(-c3cc(OCc4ccncc4Br)c(C(N)=O)s3)c2cc1OC [GW854278]"
  observedMeasurement: "0%"
- molecule: "Nc1nccc2scc(-c3ccc4c(c3)CCN4C(=O)Cc3ccccc3)c12 [GSK2576924]"
  observedMeasurement: "0%"
- molecule: "Cc1nc(N(C)[C@H]2CN(C(=O)CC#N)CC[C@H]2C)c2cc[nH]c2n1"
  observedMeasurement: "6%"
- molecule: "CCn1c(-c2ccoc2)nc2cnccc21 [SB-733887]"
  observedMeasurement: "27%"
- molecule: "CCS(=O)(=O)c1ccc(OC)c(Nc2ncc(-c3ccc(F)cc3)o2)c1.Cl [GW591947]"
  observedMeasurement: "2%"
- molecule: "Cc1nnc(-c2ccc(C)c(-c3ccc(C(=O)O)cc3)c2)o1 [GW608005]"
  observedMeasurement: "9%"
- molecule: "COc1ccc(Nc2nccc(N3CCC(NS(=O)(=O)c4ccc(NC(C)=O)cc4)C3)n2)cc1 (centres unmarked) [GSK1379729]"
  observedMeasurement: "0%"
- molecule: "Cc1ccc(-c2ccc3c(ccc4sc5c(c43)NC[C@@H](C)N=C5N(C)C)n2)cn1"
  observedMeasurement: "0%"
- molecule: "O=C(Nc1n[nH]c2cc(-c3ccccc3F)ccc12)C1CC1 [SB-733371]"
  observedMeasurement: "0%"
- molecule: "Nc1n[nH]c2nnc(-c3ccccc3)c(-c3ccccc3)c12 [GW554060]"
  observedMeasurement: "26%"
- molecule: "COc1cccc(-n2cnc3c(N)ncnc32)c1 [SKF-97416]"
  observedMeasurement: "1%"
- molecule: "CCC(=O)c1c(-c2ccccc2)c2cc(Cl)ccc2c(=O)n1Cc1cc(S(C)(=O)=O)n(CC(N)=O)n1"
  observedMeasurement: "0%"
- molecule: "COc1cc(OC)cc(-c2cc3cnc(N)nc3nc2NC(=O)NC(C)(C)C)c1"
  observedMeasurement: "0%"
- molecule: "COc1ccc(-c2cc3c(C)nc(N)nc3n([C@H]3CC[C@H](OCCO)CC3)c2=O)cn1"
  observedMeasurement: "0%"
- molecule: "COc1cc2ncn(-c3cc(OCc4ccc(S(C)(=O)=O)cc4)c(C(N)=O)s3)c2cc1OC [GW869979]"
  observedMeasurement: "0%"
- molecule: "COc1cc(Nc2nccc(N3CCC(NC(=O)C(C)c4ccc(Cl)cc4)C3)n2)cc(OC)c1OC (centres unmarked) [GSK1379757]"
  observedMeasurement: "0%"
- molecule: "CCCNC(=O)Nc1ccc(Oc2ncnc3ccn(C)c23)cc1"
  observedMeasurement: "13%"
- molecule: "CC(C)(C)c1ccc(C(=O)Nc2cn3cc(-c4ccccc4)ccc3n2)cc1"
  observedMeasurement: "0%"
- molecule: "CCC(=O)c1c(-c2ccccc2)c2cc(Cl)ccc2c(=O)n1Cc1cc(S(C)(=O)=O)n(CC(F)F)n1"
  observedMeasurement: "0%"
- molecule: "Nc1nc(-c2ccccc2F)c(-c2ccnc3ccccc23)s1 [GW560459]"
  observedMeasurement: "0%"
- molecule: "Cc1nnc(-c2ccc3ncn(-c4ccc(S(C)=O)cc4)c3c2)o1 (centres unmarked)"
  observedMeasurement: "4%"
- molecule: "Nc1ncnc2c1ncn2-c1ccc(Cl)cc1 [AH2635]"
  observedMeasurement: "0%"
